Where these numbers come from: patent USRE50724E1

Tested on: Heterodera schachtii
Assay Details: Heterodera schachtii (sugar beet cyst nematode), nematicide, contact activity: juvenile paralysis in 16-well assay plates
Type: in vivo
Conditions Used: 200 ppm, approx. 500 juveniles per well, 24 hours incubation at 25° C. in darkness, read-out: nematode immobilization compared to the untreated control
Description: Heterodera schachtii (Sugar Beet Cyst Nematode), Nematicide, Contact Activity The tested application rate of each compound was 200 ppm. All solutions were brought to a concentration of 400 ppm, respectively, as they were subsequently diluted by adding the equivalent amount of water containing juvenile nematodes. […] Nematode paralysis was determined after 24 hours incubation at 25° C. in darkness.
Each item that follows carries a reported pest or weed control at 200 ppm.

Some molecules with known pest or weed control at 200 ppm results, for comparison:
| Structure Smiles String | pest or weed control at 200 ppm |
| --- | --- |
| O=C(N[C@H]1CC[C@H]1c1ccc(Cl)cc1Cl)c1ncccc1Br | > 75% |
| O=C(N[C@H]1CC[C@H]1c1ccc(F)cc1F)c1ccccc1Cl | > 75% |

Attention now shifts to the item below.
INPUT: I would be grateful if you could share the reported pest or weed control at 200 ppm for O=C(N[C@H]1CC[C@H]1c1ccc(Cl)cc1Cl)c1ccccc1Br .
OUTPUT: > 75%
